# experiment_notes: Fluorescence spectrum and fluorescence quantum yield of CTMD analogs at 750 nM (Example 1)
# Assay type: physicochemical
# assay_context: methanol, 750 nM, 25° C., excited at 330 nm, relative to quinine sulfate 0.55
// class assignment uses Fluorescence quantum yield (MeOH) with these ranges: small value (below 0.06), mid value (0.06 to below 0.2), large value (0.2 or more)

Category of "COc1ccc(-c2cnc(NC(=S)Cc3ccccc3)c(Cc3ccccc3)n2)cc1" , please.
small value

Category of "COc1ccc(-c2cnc(NC(C)=O)c(Cc3ccccc3)n2)cc1" , please.
large value

Category of "CC(=O)Oc1ccc(CC(=O)Nc2ncc(-c3ccc(OC(C)=O)cc3)nc2Cc2ccccc2)cc1" , please.
mid value

Category of "COc1ccc(-c2cnc(N(S(=O)(=O)Cc3ccccc3)S(=O)(=O)Cc3ccccc3)c(Cc3ccccc3)n2)cc1" , please.
large value

Category of "CC(=O)Oc1ccc(-c2cnc(NC(=O)Cc3ccccc3)c(Cc3ccccc3)n2)cc1" , please.
small value

Category of "COc1ccc(-c2cnc(NC(=O)Cc3ccccc3)c(Cc3ccccc3)n2)cc1" , please.
large value

Category of "CC(=O)Oc1ccc(-c2cnc(N(S(=O)(=O)c3ccc([N+](=O)[O-])cc3)S(=O)(=O)c3ccc([N+](=O)[O-])cc3)c(Cc3ccccc3)n2)cc1" , please.
small value

Category of "CC(=O)Oc1ccc(-c2cnc(N(S(C)(=O)=O)S(C)(=O)=O)c(Cc3ccccc3)n2)cc1" , please.
mid value

Category of "O=C(Cc1ccccc1)Nc1ncc(-c2ccc(O)cc2)nc1Cc1ccccc1" , please.
small value

Category of "Cc1ccc(S(=O)(=O)Nc2ncc(-c3ccc(O)cc3)nc2Cc2ccccc2)cc1" , please.
mid value

Category of "CC(=O)Oc1ccc(-c2cnc(NS(=O)(=O)Cc3ccccc3)c(Cc3ccccc3)n2)cc1" , please.
large value

Category of "CS(=O)(=O)Nc1ncc(-c2ccc(O)cc2)nc1Cc1ccccc1" , please.
small value
